target-desc: Choline kinase (Plasmodium falciparum (isolate 3D7))
Sequence (Q8IM71 whole entry): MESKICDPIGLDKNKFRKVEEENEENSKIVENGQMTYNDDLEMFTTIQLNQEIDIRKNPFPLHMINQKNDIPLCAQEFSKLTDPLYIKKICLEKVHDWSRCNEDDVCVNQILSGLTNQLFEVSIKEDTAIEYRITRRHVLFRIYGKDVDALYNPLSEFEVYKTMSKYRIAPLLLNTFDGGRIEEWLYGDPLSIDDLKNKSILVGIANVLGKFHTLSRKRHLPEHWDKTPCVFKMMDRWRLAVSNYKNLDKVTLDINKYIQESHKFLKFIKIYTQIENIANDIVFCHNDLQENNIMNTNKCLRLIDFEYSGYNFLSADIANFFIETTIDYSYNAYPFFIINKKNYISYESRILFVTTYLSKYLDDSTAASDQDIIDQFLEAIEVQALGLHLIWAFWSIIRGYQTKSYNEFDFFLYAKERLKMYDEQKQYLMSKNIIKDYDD
assay: Inhibition of Plasmodium falciparum 3D7 choline kinase expressed in Escherichia coli BL21(DE3) assessed as reduction in phosphocholine formation
Here the recorded IC50 is given for each entry.
Numbers only; they are read as µM.

Could you share which IC50 value was measured for C[N+]1(C)CCOC(O)(c2ccc(-c3ccc(C4(O)C[N+](C)(C)CCO4)cc3)cc2)C1 (stereo not drawn) [HEMICHOLINIUM-3] ? 250

Next:
Could you share which IC50 value was measured for `CN(C)c1cc[n+](Cc2ccc(CCCCc3ccc(C[n+]4ccc(N(C)C)cc4)cc3)cc2)cc1` ? 106

Ok, now CN(c1ccc(Cl)cc1)c1cc[n+](Cc2ccc(-c3ccc(C[n+]4ccc(N(C)c5ccc(Cl)cc5)c5ccccc54)cc3)cc2)c2ccccc12 [RSM-932A] 1.75
